All values here come from ChEMBL document CHEMBL1154716.

Tested on: Escherichia coli
Assay: Antimicrobial activity against Escherichia coli at 1 umol/disk after 24 hrs by disk diffusion assay
Type: functional
Calls of active or inactive are those of the source. The rule behind the calls is not given here.
MEASUREMENT_TYPE: inhibition zone (IZ)

CC(=O)N1N=C(c2ccc(Nc3nc(Nc4ccccc4)nc(Nc4ccccc4)n3)cc2)CC1c1ccc(Cl)cc1 (centres undefined)
inactive
N#Cc1c(-c2ccc([N+](=O)[O-])cc2)cc(-c2ccc(Nc3nc(Nc4ccccc4)nc(Nc4ccccc4)n3)cc2)nc1N
inactive
N#Cc1c(-c2cccs2)cc(-c2ccc(Nc3nc(Nc4ccccc4)nc(Nc4ccccc4)n3)cc2)nc1N
inactive
Nc1nc(-c2ccc(Nc3nc(Nc4ccccc4)nc(Nc4ccccc4)n3)cc2)cc(-c2ccco2)n1
0.05 millimeter
COc1ccccc1C1CC(c2ccc(Nc3nc(Nc4ccccc4)nc(Nc4ccccc4)n3)cc2)=NN1C(C)=O (centres undefined)
inactive

Request - read-out inhibition zone (IZ) | tested on Escherichia coli | molecule `O=C(/C=C/c1ccc(Cl)cc1)c1ccc(Nc2nc(Nc3ccccc3)nc(Nc3ccccc3)n2)cc1`
inactive

Could you share what inhibition zone (IZ) was measured for CC(=O)N1N=C(c2ccc(Nc3nc(Nc4ccccc4)nc(Nc4ccccc4)n3)cc2)CC1c1cccs1 (centres undefined) , tested on Escherichia coli?
inactive

Observed inhibition zone (IZ) on Escherichia coli for CC(=O)N1N=C(c2ccc(Nc3nc(Nc4ccccc4)nc(Nc4ccccc4)n3)cc2)CC1c1ccc([N+](=O)[O-])cc1 (centres undefined) , please.
inactive

API: value(readout=inhibition zone (IZ), system=Escherichia coli) for record `COc1ccccc1-c1cc(-c2ccc(Nc3nc(Nc4ccccc4)nc(Nc4ccccc4)n3)cc2)nc(N)n1`
inactive

###

Task for the reader: assign each of the following compounds its reported MIC.
Tested on: Staphylococcus aureus
Experiment: Antimicrobial activity against Staphylococcus aureus after 24 hrs by microdilution technique
Type: functional
Hi! Could you send only the number? It should be in µM, unit omitted.

Quick one: MIC for `Nc1nc(-c2ccc(Nc3nc(Nc4ccccc4)nc(Nc4ccccc4)n3)cc2)cc(-c2ccc([N+](=O)[O-])cc2)n1` ?
176

I am curious: what MIC value has been reported for CC(=O)N1N=C(c2ccc(Nc3nc(Nc4ccccc4)nc(Nc4ccccc4)n3)cc2)CC1c1ccc(Cl)cc1 (stereo not drawn) ?
696

Bench note: what MIC did CC(=O)N1N=C(c2ccc(Nc3nc(Nc4ccccc4)nc(Nc4ccccc4)n3)cc2)CC1c1ccc([N+](=O)[O-])cc1 (stereo not drawn) show?
171

###

Please respond with reported MBC for every item in the list.
Test system: Micrococcus flavus
Assay: Antimicrobial activity against Micrococcus flavus after 24 hrs by microdilution technique
Format: functional
// note: answer is a bare numeric in µM

GET /values?readout=MBC&item= `COc1ccccc1-c1cc(-c2ccc(Nc3nc(Nc4ccccc4)nc(Nc4ccccc4)n3)cc2)nc(N)n1`
181

So what does the record say about MBC for `Nc1nc(-c2ccc(Cl)cc2)cc(-c2ccc(Nc3nc(Nc4ccccc4)nc(Nc4ccccc4)n3)cc2)n1` ?
358

So what's the measured MBC for this one? `N#Cc1c(-c2ccc([N+](=O)[O-])cc2)cc(-c2ccc(Nc3nc(Nc4ccccc4)nc(Nc4ccccc4)n3)cc2)nc1N`
676

Dear colleague, I am looking for the recorded MBC of the following molecule: `N#Cc1c(-c2cccs2)cc(-c2ccc(Nc3nc(Nc4ccccc4)nc(Nc4ccccc4)n3)cc2)nc1N`
90

Fill blank: measured MBC of the molecule CN[C@@H]1[C@H](O[C@H]2[C@H](O[C@H]3[C@H](O)[C@@H](O)[C@H](N=C(N)N)[C@@H](O)[C@@H]3N=C(N)N)O[C@@H](C)[C@]2(O)C=O)O[C@@H](CO)[C@H](O)[C@H]1O [STREPTOMYCIN] is ____.
172

// lookup MBC for `O=C(/C=C/c1ccco1)c1ccc(Nc2nc(Nc3ccccc3)nc(Nc3ccccc3)n2)cc1`
844

Which MBC value is on record for `N#Cc1c(-c2ccco2)cc(-c2ccc(Nc3nc(Nc4ccccc4)nc(Nc4ccccc4)n3)cc2)nc1N` ?
186

Would you kindly share the measured MBC for `COc1ccccc1-c1cc(-c2ccc(Nc3nc(Nc4ccccc4)nc(Nc4ccccc4)n3)cc2)nc(N)c1C#N` ?
173

MBC for CC(=O)N1N=C(c2ccc(Nc3nc(Nc4ccccc4)nc(Nc4ccccc4)n3)cc2)CC1c1ccc([N+](=O)[O-])cc1 (centres undefined) ?
342

What measured MBC goes with COc1ccccc1C1CC(c2ccc(Nc3nc(Nc4ccccc4)nc(Nc4ccccc4)n3)cc2)=NN1C(C)=O (centres undefined) ?
350

Using the record for CC(=O)N1N=C(c2ccc(Nc3nc(Nc4ccccc4)nc(Nc4ccccc4)n3)cc2)CC1c1cccs1 (centres undefined) , report its MBC.
376

Fill blank: measured MBC of the molecule CC(=O)N1N=C(c2ccc(Nc3nc(Nc4ccccc4)nc(Nc4ccccc4)n3)cc2)CC1c1ccco1 (centres undefined) is ____.
756

Reported MBC for `Nc1nc(-c2ccc(Nc3nc(Nc4ccccc4)nc(Nc4ccccc4)n3)cc2)cc(-c2ccc([N+](=O)[O-])cc2)n1` : what is it?
704

Suppose we examine the molecule CC1(C)S[C@@H]2[C@H](NC(=O)[C@H](N)c3ccccc3)C(=O)N2[C@H]1C(=O)O [AMPICILLIN] ; what MBC value has been reported?
372

Entry `Nc1nc(-c2ccc(Nc3nc(Nc4ccccc4)nc(Nc4ccccc4)n3)cc2)cc(-c2ccco2)n1` : reported MBC = ?
390

Param item = CC(=O)N1N=C(c2ccc(Nc3nc(Nc4ccccc4)nc(Nc4ccccc4)n3)cc2)CC1c1ccc(Cl)cc1 (centres undefined) ; retrieve measured MBC.
696

Which measured MBC value corresponds to `COc1ccccc1/C=C/C(=O)c1ccc(Nc2nc(Nc3ccccc3)nc(Nc3ccccc3)n2)cc1` ?
536

Request the reported MBC associated with `O=C(/C=C/c1ccc(Cl)cc1)c1ccc(Nc2nc(Nc3ccccc3)nc(Nc3ccccc3)n2)cc1`
386

MBC for `O=C(/C=C/c1cccs1)c1ccc(Nc2nc(Nc3ccccc3)nc(Nc3ccccc3)n2)cc1` ?
408

###

System: Micrococcus flavus
Assay: Antimicrobial activity against Micrococcus flavus after 24 hrs by microdilution technique
Format: functional
Provide the recorded MIC for the entries that follow.
The answer is to be given in µM; state only the numeric part.

Record lookup: for Micrococcus flavus, what MIC belongs to CC(=O)N1N=C(c2ccc(Nc3nc(Nc4ccccc4)nc(Nc4ccccc4)n3)cc2)CC1c1cccs1 (stereo unspecified) ?
188

I'm curious: which MIC was measured for `O=C(/C=C/c1ccco1)c1ccc(Nc2nc(Nc3ccccc3)nc(Nc3ccccc3)n2)cc1` tested on Micrococcus flavus?
422

Give recorded MIC with Micrococcus flavus for the following compound: `O=C(/C=C/c1ccc([N+](=O)[O-])cc1)c1ccc(Nc2nc(Nc3ccccc3)nc(Nc3ccccc3)n2)cc1`
189

Query MIC on Micrococcus flavus for CC(=O)N1N=C(c2ccc(Nc3nc(Nc4ccccc4)nc(Nc4ccccc4)n3)cc2)CC1c1ccc([N+](=O)[O-])cc1 (stereo unspecified)
171

Provide the documented MIC with Micrococcus flavus as the system for CC(=O)N1N=C(c2ccc(Nc3nc(Nc4ccccc4)nc(Nc4ccccc4)n3)cc2)CC1c1ccco1 (stereo unspecified)
378

Query the reported MIC for Micrococcus flavus; item: `N#Cc1c(-c2ccc([N+](=O)[O-])cc2)cc(-c2ccc(Nc3nc(Nc4ccccc4)nc(Nc4ccccc4)n3)cc2)nc1N`
338

Item: `COc1ccccc1-c1cc(-c2ccc(Nc3nc(Nc4ccccc4)nc(Nc4ccccc4)n3)cc2)nc(N)n1` Test system: Micrococcus flavus Read-out: MIC Value: ?
90.5

Param readout = MIC; param system = Micrococcus flavus; param query = `Nc1nc(-c2ccc(Nc3nc(Nc4ccccc4)nc(Nc4ccccc4)n3)cc2)cc(-c2ccc([N+](=O)[O-])cc2)n1` ; response: value
352

Query for Micrococcus flavus: what MIC does the record show for CN[C@@H]1[C@H](O[C@H]2[C@H](O[C@H]3[C@H](O)[C@@H](O)[C@H](N=C(N)N)[C@@H](O)[C@@H]3N=C(N)N)O[C@@H](C)[C@]2(O)C=O)O[C@@H](CO)[C@H](O)[C@H]1O [STREPTOMYCIN] ?
86

Item: `COc1ccccc1-c1cc(-c2ccc(Nc3nc(Nc4ccccc4)nc(Nc4ccccc4)n3)cc2)nc(N)c1C#N` Test system: Micrococcus flavus Read-out: MIC Value: ?
86.5

Form field - read-out: MIC; system: Micrococcus flavus; submitted item: COc1ccccc1C1CC(c2ccc(Nc3nc(Nc4ccccc4)nc(Nc4ccccc4)n3)cc2)=NN1C(C)=O (stereo unspecified)
175
